Answer each item with its documented inhibition.
- test-summary: growth inhibition of yeast control strain, primary screen, counter-screen for post-Golgi transport modulator project (AID 738)
- conditions-used: efflux-deficient yeast background strain, growth absorbance A615, 16 h; at 10 µM; stronger effect = higher value
In all, about 98,000 compounds went through this assay and about 4,900 (5%) were called active. For the sample, actives were picked, then their nearest neighbours and some compounds at random.
I only need the number, in %, no unit after it.

**Query** Given the compound O=C(c1ccco1)N1CCN(C(=O)C2c3ccccc3Oc3ccccc32)CC1 , what is its reported inhibition?
**Result** 0.85

**Query** Subsequent entry: O=C(NCCCn1ccnc1)Nc1ccc(Cl)cc1Cl
**Result** 0.62

**Query** Subsequent entry: CCCCCCC(=O)Nc1nc(C)c(-c2csc(Nc3cccc(OC)c3)n2)s1
**Result** 3.51

**Query** Subsequent entry: CC(=O)NNc1cc(=O)c2c(=O)n(C)c(=O)n(C)c2[nH]1
**Result** 0.97

**Query** Subsequent entry: O=C(O)c1ccc(NS(=O)(=O)c2cccc3nsnc23)cc1
**Result** 18

**Query** Subsequent entry: O=S(=O)(N/N=C\c1cccn1-c1ccccc1)c1ccc2ccccc2c1
**Result** 16.6

**Query** Subsequent entry: COc1ccc(SCc2noc(C(=O)NCC3CCCO3)c2C(=O)O)cc1 (stereo unspecified)
**Result** 0.46

**Query** Subsequent entry: CCn1c(SCC(=O)Nc2nc3ccc(OC)cc3s2)nnc1-c1ccoc1C
**Result** 19.9

**Query** Subsequent entry: CCOc1cc(-c2cc(-c3ccc(OC)cc3)nc(N)c2C#N)ccc1O
**Result** -2.55

**Query** Subsequent entry: CCCn1nnnc1NC(=O)COc1ccc(Cl)cc1C
**Result** 4.96

**Query** Subsequent entry: ONC(=Nc1ccccc1)c1ccccc1Cl
**Result** 24.2

**Query** Subsequent entry: COc1ccc(C(=O)Nc2cc(C)ccc2NC(=O)COc2ccccc2)cc1
**Result** -12.5

**Query** Subsequent entry: Cc1ccc(CNC(=O)COc2ccc(S(=O)(=O)NC(C)C)cc2)cc1
**Result** 36.6

**Query** Subsequent entry: Cc1cccc(NC(=S)N2CCC(c3nc4ccccc4s3)CC2)c1
**Result** 10.4

**Query** Subsequent entry: Cc1ccc(CNC(=O)C2CC(=O)N(C3CCCCCCC3)C2)cc1 (stereo unspecified)
**Result** 11.5

**Query** Subsequent entry: CCOC(=O)c1c(C2CC2)csc1NC(=O)CSCc1c(C)noc1C
**Result** 23.3

**Query** Subsequent entry: CC(=O)NS(=O)(=O)c1ccc(NC(=S)NC(=O)C(C)(C)C)cc1
**Result** -5.72

**Query** Subsequent entry: CC(C)c1ccc(N2CCN(C(=O)c3ccccc3NC(=O)/C=C(\C(=O)O)c3ccccc3)CC2)cc1
**Result** 11.3

**Query** Subsequent entry: CCOc1ccc(-c2cn(S(=O)(=O)c3cccc4nsnc34)nc2N)cc1
**Result** 53.9

**Query** Subsequent entry: O=C(NCN1CCN(CCO)CC1)c1cnccn1
**Result** -5.66

**Query** Subsequent entry: CC1=NN(C(=O)Cc2ccc(C)cc2)C(O)(c2cccnc2)C1 (stereo unspecified)
**Result** 4.82

**Query** Subsequent entry: Cc1ccc(Oc2ccc(N)cc2)cc1
**Result** 28.3

**Query** Subsequent entry: Cc1cccc(C)c1NC(=O)CCS(=O)(=O)c1cccc2nsnc12
**Result** 9.17

**Query** Subsequent entry: O=C(Cc1ccc(F)cc1)NC1CCCC1
**Result** 20.8

**Query** Subsequent entry: CCOc1ccc(Nc2nc(Cc3nnc(SCC(=O)NC4CCCC4)n3C)cs2)cc1
**Result** 5.32

**Query** Subsequent entry: CCN(CC)S(=O)(=O)c1cc([N+](=O)[O-])ccc1NNC(=O)Nc1ccccc1
**Result** 5.17

**Query** Subsequent entry: CSc1ccc(C#N)cc1NC(=O)c1cccc(Cl)c1
**Result** 15.8

**Query** Subsequent entry: Cc1ccc(C(=O)N2CCCC2)c(F)c1F
**Result** -0.75

**Query** Subsequent entry: O=C(CCOc1ccccc1)NCc1ccccc1
**Result** 39.4

**Query** Subsequent entry: O=C(Nc1ccccc1)O/N=C1\CCCCC1c1ccc([N+](=O)[O-])cc1[N+](=O)[O-] (stereo unspecified)
**Result** 47.9

**Query** Subsequent entry: CCOC(=O)c1c(NC(=O)c2ccc(N3CCOCC3)c([N+](=O)[O-])c2)sc(C)c1C
**Result** 3.45

**Query** Subsequent entry: Cc1ccc(CNC(=O)CCNC(=O)Cn2ccc3ccccc3c2=O)cc1
**Result** 7.83

**Query** Subsequent entry: CSc1ccccc1C(=O)Nc1cccc(C(C)=O)c1
**Result** -2.07

**Query** Subsequent entry: COc1ccc(C(C#N)Nc2ccc(C)cc2)cc1 (stereo unspecified)
**Result** 1.82

**Query** Subsequent entry: Cc1c(Br)cc(C(=O)N2CCCCCC2)c(C)c1C
**Result** 38.8

**Query** Subsequent entry: O=c1c(-c2ccccc2)coc2c(CN3CCOCC3)c(O)ccc12
**Result** 10.4

**Query** Subsequent entry: CCOc1ccc(OCC)c(NC(=O)CN(C)S(=O)(=O)c2cccc3nsnc23)c1
**Result** 0.74

**Query** Subsequent entry: CC(C)CC(=O)N1CCC(O)(CS(=O)(=O)Cc2ccccc2)CC1
**Result** 12.7

**Query** Subsequent entry: COc1ccc(OCC(=O)N2CCN(C(=O)COc3ccccc3)CC2)cc1
**Result** -2.43

**Query** Subsequent entry: CCOc1ccc(NC(=O)CCS(=O)(=O)c2cccc3nsnc23)cc1
**Result** 32.5

**Query** Subsequent entry: O=C(N/N=C/c1ccc(O)c(O)c1)C1c2ccccc2Oc2ccccc21
**Result** 2.52

**Query** Subsequent entry: CC(C)OCCCNC(=O)C1CC(=O)N(C2CCCCCCC2)C1 (stereo unspecified)
**Result** 0.87

**Query** Subsequent entry: COc1ccc(NC(=O)ON=C2c3ccccc3-c3ccccc32)cc1
**Result** 3.19

**Query** Subsequent entry: O=C(NCCCN1CCCCCC1)C1CC(=O)N(C2CCCC2)C1 (stereo unspecified)
**Result** 39.6

**Query** Subsequent entry: Cc1cccc(C)c1-n1c(C)cc(/C=C2\C(=O)NN(c3ccccc3)C2=O)c1C
**Result** 20.6

**Query** Subsequent entry: CCCN(CCC)C(=O)C1c2ccccc2Oc2ccccc21
**Result** 31.5
